Target: Glutamate NMDA receptor
Assay: Displacement of L-[3H]glutamate from glutamate receptor in rat brain synaptic membrane
Non-standard residues stand in square brackets, D forms with d. Residues, ends and D or L forms follow the SMILES beside them. Oic = O=C(O)[C@@H]1C[C@@H]2CCCC[C@@H]2N1; Hyp = O=C(O)[C@@H]1C[C@@H](O)CN1; Nle = CCCC[C@H](N)C(=O)O
endpoint.label: Ki (µM)

CCCC[C@H](N)C(=O)N1CCC[C@H]1C(=O)N[C@@H](CCC(=O)O)C(=O)O (H-[Nle]-Pro-Glu-OH) | 19.5
N[C@@H](Cc1ccccc1)C(=O)N1CCC[C@H]1C(=O)N[C@@H](CCC(=O)O)C(=O)O (H-Phe-Pro-Glu-OH) | 4.85

A. NCC(=O)N1C[C@H](O)C[C@H]1C(=O)N[C@@H](CCC(=O)O)C(=O)O (H-Gly-[Hyp]-Glu-OH)
B. NCC(=O)N1[C@H](C(=O)N[C@@H](CCC(=O)O)C(=O)O)C[C@@H]2CCCC[C@@H]21 (H-Gly-[Oic]-Glu-OH)
C. C[C@@H](N)C(=O)N1CCC[C@H]1C(=O)N[C@@H](CCC(=O)O)C(=O)O
Rank order required: Ki, descending. Respond with an ordered listing of the labels, as requested. B, A, C
(B: 22.4 µM, A: 9.24 µM, C: 5.4 µM)
